From: patent US20220025010A1

STUDY_TARGET: T1, human GIP receptor (human, UniProt P48546 22-466)
T1 sequence (looked up): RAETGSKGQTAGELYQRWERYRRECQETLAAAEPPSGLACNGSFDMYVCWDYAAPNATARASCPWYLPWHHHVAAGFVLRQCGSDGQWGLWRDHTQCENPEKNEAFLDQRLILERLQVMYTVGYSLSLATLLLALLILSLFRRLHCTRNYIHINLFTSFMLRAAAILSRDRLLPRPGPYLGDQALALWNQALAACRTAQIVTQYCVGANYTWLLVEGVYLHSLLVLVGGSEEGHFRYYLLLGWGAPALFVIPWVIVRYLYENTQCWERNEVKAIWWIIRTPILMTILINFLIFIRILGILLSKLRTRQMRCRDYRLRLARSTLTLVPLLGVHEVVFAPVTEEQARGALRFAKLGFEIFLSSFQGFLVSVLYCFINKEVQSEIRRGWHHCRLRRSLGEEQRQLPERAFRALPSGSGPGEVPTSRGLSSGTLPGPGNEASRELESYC
ASSAY_COMMENT: cell-based or functional assay
*1 amine or outer side, *2 acyl side, *3 side chain or, on linkers, in order; H or OH if unused. Where no end group is shown, it is not given here. Side-chain parts run from the residue outwards. [ ]: non-standard residue; d: D form. The star is where a group is joined. C18 diacid = O=C(O)CCCCCCCCCCCCCCCCC(=O)*; C16 diacid = O=C(O)CCCCCCCCCCCCCCC(=O)*; γGlu = O=C(O)[C@H](CCC(=O)[*:2])N[*:1]; pGlu = O=C1CC[C@@H](C(=O)O)N1; AEEA = NCCOCCOCC(=O)O
Examples of binders with documented DiscoveRx cAMP antagonism % inhib follow.
Write the answer as a number in %, unit excluded.

Some entries whose results are on file:
[
  {
    "BINDER": "EGTFISDYSIAMDRIK([AEEA-AEEA-γGlu-C18 diacid])QQDFVNWLLAQR-NH2 (not fully specified (residue 1)) [AT377]",
    "UNIT": "%",
    "DiscoveRx cAMP antagonism % inhib": 100
  },
  {
    "BINDER": "EGTFISDYSIAMDRIK([AEEA-AEEA-AEEA-γGlu-C16 diacid])QQDFVNWLLAQR-NH2 (not fully specified (residue 1)) [AT375]",
    "UNIT": "%",
    "DiscoveRx cAMP antagonism % inhib": 100
  }
]

Now look at this one.
Looking up [pGlu]GTFISDYSIAMDRIK([AEEA-AEEA-γGlu-C18 diacid])QQDFVNWLLAQR-NH2 [AT381] , I see its DiscoveRx cAMP antagonism % inhib listed as 100
